# PROCEDURE_DETAILS: Phase 1 plasma pharmacokinetics
# Format: in vivo, human
# EXPERIMENTAL_CONDITIONS: human, plasma, oral, 80 mg, T1/2, Median, abexinostat continuous administration (BID, 4-h interval) on C1D7, 80 mg (n = 4)
QUANTITY_NAME: half-life (h)
Respond with the bare value in h.

Task item: Which half-life is reported for this compound? CN(C)Cc1c(C(=O)NCCOc2ccc(C(=O)NO)cc2)oc2ccccc12 [abexinostat, Abexinostat]
Reply: 5.03

----------
# PROCEDURE_DETAILS: Phase 1 plasma pharmacokinetics
# Type: in vivo, human
# EXPERIMENTAL_CONDITIONS: human, plasma, oral, 40 mg, T1/2, Median, abexinostat continuous administration (BID, 4-h interval) on C1D1, 40 mg (n = 4)
QUANTITY_NAME: half-life (h)
Kindly answer with a numeric value in h, unit omitted.

Task item: Quick check: half-life of CN(C)Cc1c(C(=O)NCCOc2ccc(C(=O)NO)cc2)oc2ccccc12 ?
Reply: 3.69

Data origin, for the record: paper PMC12123727
